procedure_details: Pharmacokinetics in mice
Format: in vivo, Balb/C mice
conditions_used: po, 10 mg/kg in mice
metric: Cmax (nM)
Number in nM, nothing else.

Item Cc1nc(NC2CCCC2)sc1-c1ccnc(Nc2ccc(N3CCOCC3)cn2)n1 has what recorded Cmax?
1600

====

Measured Ki values are reported for all entries that follow.
target_or_system: CDK6D3 (Homo sapiens)
Sequence (Q00534 whole entry): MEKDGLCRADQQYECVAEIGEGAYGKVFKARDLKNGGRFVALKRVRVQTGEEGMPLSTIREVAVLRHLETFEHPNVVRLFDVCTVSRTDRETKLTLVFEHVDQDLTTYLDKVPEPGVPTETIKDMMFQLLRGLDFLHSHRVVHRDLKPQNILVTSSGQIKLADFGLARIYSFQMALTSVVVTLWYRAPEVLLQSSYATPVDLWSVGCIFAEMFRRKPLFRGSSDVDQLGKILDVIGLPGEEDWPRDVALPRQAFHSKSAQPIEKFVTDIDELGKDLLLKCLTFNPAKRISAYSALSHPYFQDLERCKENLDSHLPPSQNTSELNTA
Sequence (P30281 whole entry partner): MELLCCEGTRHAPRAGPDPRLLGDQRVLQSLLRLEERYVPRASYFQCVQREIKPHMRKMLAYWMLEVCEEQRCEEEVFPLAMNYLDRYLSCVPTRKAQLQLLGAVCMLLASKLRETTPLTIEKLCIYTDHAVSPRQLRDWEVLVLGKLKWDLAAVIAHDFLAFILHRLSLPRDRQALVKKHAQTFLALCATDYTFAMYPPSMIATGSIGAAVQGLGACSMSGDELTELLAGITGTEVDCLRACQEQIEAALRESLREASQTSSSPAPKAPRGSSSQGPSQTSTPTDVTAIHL
Number in nM, nothing else.

compound	unit_spec	Ki
CNc1nc(C)c(-c2nc(Nc3ccc(N4CCCNCC4)cn3)ncc2F)s1 [Compound 53]	nM	32
CCN1CCN(Cc2ccc(Nc3ncc(F)c(-c4sc(NC5CCCC5)nc4C)n3)nc2)CC1 [Compound 84]	nM	14
CC(=O)N1CCN(c2ccc(Nc3nccc(-c4sc(N(C)C)nc4C)n3)nc2)CC1 [Compound 48]	nM	234
Cc1nc(NC2CCCC2)sc1-c1ccnc(Nc2ccc(N3CCOCC3)cn2)n1 [Compound 71]	nM	29
O=CN1CCN(c2ccc(Nc3nccc(-c4sc(NC5CCCC5)nc4C(F)(F)F)n3)nc2)CC1 [Compound 79]	nM	7
CNc1nc(C)c(-c2nc(Nc3ccc(N4CCOCC4)cn3)ncc2F)s1 [Compound 38]	nM	30

Form field: Ki recorded for CC(=O)N1CCN(c2ccc(Nc3nccc(-c4sc(NC5CCCC5)nc4C)n3)nc2)CC1 [Compound 68] with CDK6D3 (Homo sapiens) (enter value)
93

Form field: Ki recorded for CCN1CCN(c2ccc(Nc3nccc(-c4sc(C(C)C)nc4C)n3)nc2)CC1 [Compound 15] with CDK6D3 (Homo sapiens) (enter value)
25

====

target_or_system: CDK9T1 (Homo sapiens, UniProt P50750)
Sequence (P50750 whole entry): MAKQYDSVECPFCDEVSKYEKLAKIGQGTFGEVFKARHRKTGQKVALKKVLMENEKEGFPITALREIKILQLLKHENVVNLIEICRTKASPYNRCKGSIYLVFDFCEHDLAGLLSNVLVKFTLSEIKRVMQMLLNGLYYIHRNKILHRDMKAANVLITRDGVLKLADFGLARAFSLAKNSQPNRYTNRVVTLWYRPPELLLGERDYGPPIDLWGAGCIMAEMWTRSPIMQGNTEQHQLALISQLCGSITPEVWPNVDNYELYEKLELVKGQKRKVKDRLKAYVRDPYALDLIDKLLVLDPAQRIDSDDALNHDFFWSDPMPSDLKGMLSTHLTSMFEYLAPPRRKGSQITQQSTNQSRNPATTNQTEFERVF
Sequence (O60563 whole entry partner): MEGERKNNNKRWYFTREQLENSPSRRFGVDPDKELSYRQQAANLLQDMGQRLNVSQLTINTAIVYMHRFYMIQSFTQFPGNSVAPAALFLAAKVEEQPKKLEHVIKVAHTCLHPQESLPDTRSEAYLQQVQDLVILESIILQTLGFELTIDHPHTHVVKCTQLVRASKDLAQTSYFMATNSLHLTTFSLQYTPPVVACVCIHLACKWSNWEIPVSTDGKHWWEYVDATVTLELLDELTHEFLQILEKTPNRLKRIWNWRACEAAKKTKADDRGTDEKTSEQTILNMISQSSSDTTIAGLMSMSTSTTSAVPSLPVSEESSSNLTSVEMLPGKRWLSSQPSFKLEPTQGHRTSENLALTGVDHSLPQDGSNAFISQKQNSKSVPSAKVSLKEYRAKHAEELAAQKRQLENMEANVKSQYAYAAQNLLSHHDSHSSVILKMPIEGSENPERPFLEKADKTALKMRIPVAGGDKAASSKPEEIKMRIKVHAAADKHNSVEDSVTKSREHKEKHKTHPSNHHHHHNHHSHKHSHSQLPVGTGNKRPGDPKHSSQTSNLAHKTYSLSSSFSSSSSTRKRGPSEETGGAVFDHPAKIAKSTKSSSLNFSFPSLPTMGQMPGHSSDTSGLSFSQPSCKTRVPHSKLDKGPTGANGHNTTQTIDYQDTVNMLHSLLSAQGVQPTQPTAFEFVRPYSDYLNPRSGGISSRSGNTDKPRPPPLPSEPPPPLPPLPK
pKi: −log10 of the molar value.
Quick rule: pKi of at least 6 means Met, below that means Not met.

molecule	label_class
CC(=O)N1CCN(c2ccc(Nc3nccc(-c4sc(NC(C)C)nc4C)n3)nc2)CC1 [Compound 57]	Not met
CNc1nc(C)c(-c2nc(Nc3ccc(N4CCOCC4)cn3)ncc2C#N)s1 [Compound 37]	Not met
CCc1nc(C)c(-c2ccnc(Nc3ccc(N4CCNCC4)cn3)n2)s1 [Compound 7]	Not met
FC(F)(F)c1nc(NC2CCCC2)sc1-c1ccnc(Nc2ccc(N3CCNCC3)cn2)n1 [Compound 62]	Met
CC(=O)N1CCN(c2ccc(Nc3nccc(-c4sc(N(C)C)nc4C)n3)nc2)CC1 [Compound 48]	Not met
Cc1nc(Nc2ccccc2)sc1-c1ccnc(Nc2ccc(N3CCNCC3)cn2)n1 [Compound 89]	Met
Cc1nc(N(C)C2CCCC2)sc1-c1ccnc(Nc2ccc(N3CCN(C)CC3)cn2)n1 [Compound 86]	Not met
CNc1nc(C)c(-c2ccnc(Nc3ccc(N4CCOCC4)cn3)n2)s1 [Compound 36]	Not met

Quick check: does Cc1nc(NC2CCCC2)sc1-c1ccnc(Nc2ccc(N3CCCNCC3)cn2)n1 [Compound 76] have pKi greater than or equal to 6?
Met

Quick check: does CC(=O)N1CCN(c2ccc(Nc3ncc(F)c(-c4sc(N(C)C)nc4C)n3)nc2)CC1 [Compound 49] have pKi greater than or equal to 6?
Not met

Quick check: does Cc1nc(NC2CCCC2)sc1-c1ccnc(Nc2ccc(N3CCCCC3)cn2)n1 [Compound 75] have pKi greater than or equal to 6?
Not met

Quick check: does Cc1nc(NC2CCCC2)sc1-c1nc(Nc2ccc(N3CCN(S(C)(=O)=O)CC3)cn2)ncc1F [Compound 82] have pKi greater than or equal to 6?
Not met

Quick check: does CNc1nc(C)c(-c2nc(Nc3ccc(N4CCN(Cc5ccccc5)CC4)cc3)ncc2C#N)s1 [Compound 42] have pKi greater than or equal to 6?
Met

Quick check: does Cc1nc(N(C)C)sc1-c1ccnc(Nc2ccc(N3CCN(C)CC3)cn2)n1 [Compound 45] have pKi greater than or equal to 6?
Not met

====

procedure_details: Pharmacokinetics in rat
Format: in vivo, Wistar Rat
conditions_used: po, 20 mg/kg in rat
metric: Cmax
Include the unit after the number when you answer.

Item Cc1nc(NC2CCCC2)sc1-c1ccnc(Nc2ccc(N3CCOCC3)cn2)n1 has what recorded Cmax?
1400 nM

====

procedure_details: Pharmacokinetics in rat
Format: in vivo, Wistar Rat
conditions_used: male, Wistar, plasma; po, 40 mg/kg in rat
metric: Cmax (nM)
Number in nM, nothing else.

Item Cc1nc(NC2CCCC2)sc1-c1ccnc(Nc2ccc(N3CCNCC3)cn2)n1 [Compound 60] has what recorded Cmax?
500

====

Tested on: MOLM-13
procedure_details: Cell viability assay, leukemia MOLM-13
Format: cell-based
conditions_used: Homo sapiens, 72 h, read-out: Antiproliferative activity GI50 MOLM-13
metric: GI50 (nM)
Number in nM, nothing else.

Illustrative cases are given below, each with its answer.
smi	GI50 / nM
Cc1nc(N(C)C)sc1-c1nc(Nc2ccc(N3CCN(C)CC3)cn2)ncc1F	98
CNc1nc(C)c(-c2nc(Nc3ccc(N4CCN(C(C)=O)CC4)cn3)ncc2C#N)s1	408
CNc1nc(C)c(-c2nc(Nc3ccc(N4CCC(N(C)C)CC4)cn3)ncc2F)s1	76

Okay, now this molecule:
Item CCc1nc(C)c(-c2ccnc(Nc3ccc(N4CCN(CC)CC4)cn3)n2)s1 has what recorded GI50?
293

====

UniProt:P06493 Ki data
Sequence (P06493 whole entry): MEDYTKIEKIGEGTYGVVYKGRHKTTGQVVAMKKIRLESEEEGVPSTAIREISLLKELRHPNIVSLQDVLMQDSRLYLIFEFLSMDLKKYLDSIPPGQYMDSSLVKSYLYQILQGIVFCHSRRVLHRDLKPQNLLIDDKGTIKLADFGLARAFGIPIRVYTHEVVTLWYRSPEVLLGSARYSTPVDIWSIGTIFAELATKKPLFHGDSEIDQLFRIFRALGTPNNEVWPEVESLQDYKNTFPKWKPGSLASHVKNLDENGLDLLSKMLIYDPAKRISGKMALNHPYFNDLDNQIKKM
Sequence (P14635 whole entry partner): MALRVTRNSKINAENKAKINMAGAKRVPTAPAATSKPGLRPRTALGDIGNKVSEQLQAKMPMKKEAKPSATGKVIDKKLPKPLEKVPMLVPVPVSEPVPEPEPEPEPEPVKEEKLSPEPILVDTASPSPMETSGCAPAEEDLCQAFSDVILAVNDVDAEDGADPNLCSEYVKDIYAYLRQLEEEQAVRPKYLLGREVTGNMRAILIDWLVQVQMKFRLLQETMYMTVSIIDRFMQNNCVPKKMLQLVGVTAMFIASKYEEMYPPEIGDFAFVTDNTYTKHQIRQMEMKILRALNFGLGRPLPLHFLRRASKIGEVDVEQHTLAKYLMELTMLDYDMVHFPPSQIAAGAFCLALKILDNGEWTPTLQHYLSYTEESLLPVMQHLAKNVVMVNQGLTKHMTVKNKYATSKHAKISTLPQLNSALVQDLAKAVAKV

Illustrative cases are given below, each with its answer.
smi	Ki
CCN1CCN(Cc2ccc(Nc3nccc(-c4sc(C(C)C)nc4C)n3)nc2)CC1	> 5 µM
CCc1nc(C)c(-c2ccnc(Nc3ccc(N4CCN(CC)CC4)cn3)n2)s1	> 5 µM

Okay, now this compound:
Form field: Ki recorded for FC(F)(F)c1nc(NC2CCCC2)sc1-c1ccnc(Nc2ccc(N3CCOCC3)cn2)n1 with UniProt:P06493 (enter value)
> 5 µM

====

CDK9T1 (Homo sapiens) Ki data
Number in nM, nothing else.

Illustrative cases are given below, each with its answer.
compound	target_or_system	metric	test_result
Cc1[nH]c(=O)sc1-c1ccnc(Nc2ccc(N3CCN(C)CC3)cn2)n1 [Compound 92]	CDK9T1 (Homo sapiens)	Ki	950
Cc1nc(NC(C)C)sc1-c1ccnc(Nc2ccc(N3CCN(C)CC3)cn2)n1 [Compound 56]	CDK9T1 (Homo sapiens)	Ki	773
CC(=O)N1CCN(c2ccc(Nc3nccc(-c4sc(NC5CCCC5)nc4C)n3)nc2)CC1 [Compound 68]	CDK9T1 (Homo sapiens)	Ki	286
CCN1CCN(Cc2ccc(Nc3ncc(F)c(-c4sc(NC5CCCC5)nc4C)n3)nc2)CC1 [Compound 84]	CDK9T1 (Homo sapiens)	Ki	3570
Cc1nc(NC(C)C)sc1-c1ccnc(Nc2ccc(N3CCNCC3)cn2)n1 [Compound 55]	CDK9T1 (Homo sapiens)	Ki	2420

Form field: Ki recorded for CNc1nc(C)c(-c2nc(Nc3ccc(N4CCNCC4)cn3)ncc2F)s1 [Compound 28] with CDK9T1 (Homo sapiens) (enter value)
784

Form field: Ki recorded for Cc1nc(N(C)C2CCCC2)sc1-c1ccnc(Nc2ccc(N3CCNCC3)cn2)n1 [Compound 85] with CDK9T1 (Homo sapiens) (enter value)
1800

Form field: Ki recorded for CC(=O)N1CCN(c2ccc(Nc3ncc(F)c(-c4sc(NC5CCCC5)nc4C)n3)nc2)CC1 [Compound 69] with CDK9T1 (Homo sapiens) (enter value)
4990

Form field: Ki recorded for Cc1nc(NC(C)C)sc1-c1ccnc(Nc2ccc(N3CCCNCC3)cn2)n1 [Compound 59] with CDK9T1 (Homo sapiens) (enter value)
925

Form field: Ki recorded for CNc1nc(C)c(-c2ccnc(Nc3ccc(N4CCN(C)CC4)cn3)n2)s1 [Compound 29] with CDK9T1 (Homo sapiens) (enter value)
1820

Form field: Ki recorded for CNc1nc(C)c(-c2nc(Nc3ccc(N4CCN(C)CC4)cn3)ncc2F)s1 [Compound 31] with CDK9T1 (Homo sapiens) (enter value)
1910

Form field: Ki recorded for Cc1nc(NC2CCCC2)sc1-c1nc(Nc2ccc(N3CCCNCC3)cn2)ncc1F [Compound 81] with CDK9T1 (Homo sapiens) (enter value)
679

Sourced from patent USRE49850E1
